Tested on: HIPK1
Conditions used: concentration: 1 μM, replicates: in singlicate; n = 1
Endpoint name: %Inh

Observe how each entry below is paired with its result.
>>> print(df.to_string())
                                   compound  observed_value
0    Fc1cccc(COc2nnc(-c3ccc4c(c3)CCO4)o2)c1             25%
1  COc1cccc(NC(=O)NC2CCN(c3ccnc(Nc4ccc(F)cc4)n3)C2)c1 (centres unmarked)              0%
2  CS(=O)(=O)c1ccc(-c2nc3n(c2-c2ccncc2)CCC3)cc1              0%
3      Cc1csc(-c2nc(Nc3ccncc3)c3ccccc3n2)n1              7%

Shift focus to the following entry.
Qu. Notebook: pull reported %Inh for HIPK1, entry Cc1ccccc1-n1cnc2c(N)ncnc21
Ans. 0%

---

System: GAK
Endpoint name: Kd (nM)
Give the quantity in nM, number only.

Qu. Can you share its Kd? I mean this compound: Fc1cc(Cl)ccc1Nc1ccnc2cc(I)ccc12 [GW551191]
Ans. 340

---

Measured %Inh values are reported for all entries that follow.
Test system: TNIK
Conditions used: concentration: 1 μM, replicates: in singlicate; n = 1
Lab book: enter the figure in %, no units written.

As a guide, the following entries are already answered.
>>> print(df.to_string())
                        structure_as_smiles  unit_string  observed_value
0                Cc1ccccc1-n1cnc2c(N)ncnc21            %               0
1  COc1ccc(Nc2nccc(-c3cccc(NC(=O)c4cc5cc(F)ccc5[nH]4)c3)n2)cc1            %              84
2  Cl.NC(=O)c1cccc(Nc2nccc(Nc3ccc(Oc4cccc(Cl)c4)c(Cl)c3)n2)c1            %               2
3  COC(=O)c1c(-c2ccccc2)c2cc(OC)ccc2c(=O)n1Cc1ccccc1            %               1

Qu. Suppose we examine the compound Cc1cccc(-c2nc(Nc3ccc4[nH]ncc4c3)c3ccccc3n2)n1 ; what %Inh value has been reported?
Ans. 4

---

Test system: DLK
Construct: gene MAP3K12
Endpoint name: Kd (nM)
Dear colleague, please return just the value in nM, with no unit written.

Qu. # value lookup — system DLK, readout Kd, item Cc1cc(-c2ccc3c(c2)CC[C@@H](N[C@@H](C)c2ccccc2)C3)cnc1N.Cl [GW412617]
Ans. 280

---

Measured %Inh, listed per entry.
Tested on: INSR
Conditions used: concentration: 1 μM, replicates: in singlicate; n = 1
Numbers only here, please. The scale is %.

Observe how each entry below is paired with its result.
>>> print(df.to_string())
                                   molecule  tested_target  observed_value
0  Cn1cncc1-c1ccc2ncnc(Nc3ccc(OCc4ccccc4)cc3)c2c1 [GW320571]           INSR               3
1  Cc1cc(N2Cc3ccccc3C2)nc(Nc2ccc(S(=O)(=O)N3CCOCC3)cc2)n1.Cl [GSK1669917]           INSR             100
2  Cl.c1ccc(-c2n[nH]cc2-c2ccnc(-c3ccc(CN4CCOCC4)cc3)c2)nc1 [GW776245]           INSR               0

Attention now shifts to the item below.
Qu. Request the reported %Inh associated with CC1=C(C(=O)Nc2cc3cn[nH]c3cc2F)C(c2ccc(C(F)(F)F)cc2)CC(=O)N1 (stereo not shown) [GSK429286]
Ans. 0
